Reported drug-induced phospholipidosis by item:
Tested on: A549-ACE2
Test: drug-induced phospholipidosis relative to tamoxifen; higher = more phospholipidosis
Details: 6.66667 µM; 48 h

>  <molecule>
Cn1cc(-c2ccc3c(c2)CCN3C(=O)Cc2cccc(C(F)(F)F)c2)c2c(N)ncnc21

>  <drug-induced phospholipidosis (%)>
3.48

$$$$
>  <molecule>
Cc1cc(Nc2ccc(NC(=O)c3ccc(Nc4ccnc5ccccc45)cc3)cc2)nc(N)n1

>  <drug-induced phospholipidosis (%)>
77.3

$$$$
>  <molecule>
NCCc1c[nH]c2ccc(C(N)=O)cc12

>  <drug-induced phospholipidosis (%)>
-1.08

$$$$
>  <molecule>
CN1CCC[C@@H](CC2c3ccccc3Sc3ccccc32)C1 (racemic)

>  <drug-induced phospholipidosis (%)>
75.4

$$$$

====

System: U2OS
Assay: cell viability relative to DMSO; higher = less toxic
Conditions: 72 h; 10000 nM
Reported cell viability by item:

>  <compound>
N#CCCCSC(=N)N [kevetrin]

>  <cell viability / %>
96.3

$$$$
>  <compound>
COc1ccc(-c2ccc3c(N4CCOC[C@@H]4C)nc(N4CCOC[C@@H]4C)nc3n2)cc1CO [AZD8055]

>  <cell viability / %>
16.1

$$$$
>  <compound>
O=C(O)c1cc(=O)[nH]c(=O)[nH]1 [orotic-acid]

>  <cell viability / %>
99.4

$$$$
>  <compound>
Cc1cc2ncc(C(=O)NCC(C)(C)NCC(=O)N3CCC[C@H]3C#N)cn2n1 [anagliptin]

>  <cell viability / %>
98.5

$$$$
>  <compound>
N[C@H](Cc1cc(I)c(Oc2ccc(O)c(I)c2)c(I)c1)C(=O)O [liothyronine-(isomer)]

>  <cell viability / %>
96

$$$$
>  <compound>
NC(=O)N1CCC(CC(=O)N2CCC([C@H]3c4ncc(Br)cc4CCc4cc(Cl)cc(Br)c43)CC2)CC1 [lonafarnib]

>  <cell viability / %>
67.2

$$$$
>  <compound>
CCCCNc1c(C(=O)OCC)c(C)nc2c1cnn2CC [tracazolate]

>  <cell viability / %>
93.6

$$$$
>  <compound>
CC(C)(C)c1[nH]cnc1/C=c1\[nH]c(=O)/c(=C/c2ccccc2)[nH]c1=O [plinabulin]

>  <cell viability / %>
20.6

$$$$
>  <compound>
CO/N=C(\C(=O)N[C@@H]1C(=O)N2C(C(=O)[O-])=C(C[N+]3(C)CCCC3)CS[C@H]12)c1csc(N)n1 [cefepime]

>  <cell viability / %>
99.4

$$$$
>  <compound>
Nc1c2ccccc2nc2ccccc12 [9-aminoacridine]

>  <cell viability / %>
34.9

$$$$
>  <compound>
CN1CCN(CC(=O)N2c3ccccc3C(=O)Nc3cccnc32)CC1 [pirenzepine]

>  <cell viability / %>
101

$$$$
>  <compound>
CC(C)c1cccc2c(-c3ccccc3)cc(-c3ccc(-c4ccc(C(=O)O)cc4)[nH]3)nc12

>  <cell viability / %>
96.9

$$$$
>  <compound>
CN1CCC(=C2c3ccccc3C=Cc3ccccc32)CC1 [cyproheptadine]

>  <cell viability / %>
96.9

$$$$
>  <compound>
COC(=O)/C=C/C(=O)N[C@@H]1CC[C@@]2(O)[C@H]3Cc4ccc(O)c5c4[C@@]2(CCN3CC2CC2)[C@H]1O5 [beta-funaltrexamine]

>  <cell viability / %>
89.9

$$$$
>  <compound>
N#CC(c1ccccc1)(c1ccccc1)c1ccccc1Cl [TRAM-39]

>  <cell viability / %>
94.3

$$$$
>  <compound>
CC(=O)O[C@H]1C[C@H](O[C@H]2[C@@H](O)C[C@H](O[C@H]3[C@@H](O)C[C@H](O[C@H]4CC[C@@]5(C)[C@H](CC[C@@H]6[C@@H]5C[C@@H](O)[C@]5(C)[C@@H](C7=CC(=O)OC7)CC[C@]65O)C4)O[C@@H]3C)O[C@@H]2C)O[C@H](C)[C@H]1O[C@@H]1O[C@H](CO)[C@@H](O)[C@H](O)[C@H]1O [lanatoside-C]

>  <cell viability / %>
6.7

$$$$
>  <compound>
O=c1c(O)c(-c2ccc(O)cc2O)oc2cc(O)cc(O)c12 [morin]

>  <cell viability / %>
102

$$$$
>  <compound>
Clc1cccc(N2CCNCC2)c1 [mCPP]

>  <cell viability / %>
93.9

$$$$
>  <compound>
CN[C@@H]1[C@H](O[C@H]2[C@H](O[C@H]3[C@H](O)[C@@H](O)[C@H](NC(=N)N)[C@@H](O)[C@@H]3NC(=N)N)O[C@@H](C)[C@]2(O)CO)O[C@@H](CO)[C@H](O)[C@H]1O [dihydrostreptomycin]

>  <cell viability / %>
97.3

$$$$
>  <compound>
O=C(OCC(COC(=O)c1cccnc1)(COC(=O)c1cccnc1)COC(=O)c1cccnc1)c1cccnc1 [niceritrol]

>  <cell viability / %>
98.8

$$$$
>  <compound>
CC(=O)[C@@]1(O)CC[C@H]2[C@@H]3C[C@H](C)C4=CC(=O)C=C[C@]4(C)[C@@]3(F)[C@@H](O)C[C@@]21C [fluorometholone]

>  <cell viability / %>
92.3

$$$$
>  <compound>
CC(C)Oc1cccc(CC(=O)N2CCC[C@](CC[N+]34CCC(c5ccccc5)(CC3)CC4)(c3ccc(Cl)c(Cl)c3)C2)c1

>  <cell viability / %>
98.8

$$$$
>  <compound>
CC(C)/N=c1\cc2n(-c3ccc(Cl)cc3)c3ccccc3nc-2cc1Nc1ccc(Cl)cc1 [clofazimine]

>  <cell viability / %>
91.6

$$$$
>  <compound>
N=C(N)NCCC[C@@H](N)C(=O)N[C@@H](CCCNC(=N)N)C(=O)N1CCC[C@H]1C(=O)N1C[C@H](O)C[C@H]1C(=O)NCC(=O)N[C@@H](Cc1cccs1)C(=O)N[C@@H](CO)C(=O)N1Cc2ccccc2C[C@@H]1C(=O)N1[C@H](C(=O)N[C@@H](CCCNC(=N)N)C(=O)O)C[C@@H]2CCCC[C@@H]21 [icatibant-acetate]

>  <cell viability / %>
101

$$$$
>  <compound>
CN[C@H]1C(=O)N[C@@H]2Cc3ccc(cc3)Oc3cc4cc(c3O[C@@H]3O[C@H](C(=O)O)[C@@H](O)[C@H](O)[C@H]3NC(=O)CCCCCCCCC(C)C)Oc3ccc(cc3Cl)[C@@H](O)[C@@H]3NC(=O)[C@H](NC(=O)[C@@H]4NC(=O)[C@@H](NC2=O)c2cc(cc(O)c2Cl)Oc2cc1ccc2O)c1ccc(O)c(c1)-c1c(O[C@H]2O[C@H](CO)[C@@H](O)[C@H](O)[C@@H]2O)cc(O)cc1[C@@H](C(=O)NCCCN(C)C)NC3=O [dalbavancin]

>  <cell viability / %>
95.8

$$$$
>  <compound>
CC(=N)NCc1cccc(CN)c1 [1400W]

>  <cell viability / %>
104

$$$$
>  <compound>
Cc1ccccc1-c1cc(N2CCN(C)CC2)ncc1N(C)C(=O)C(C)(C)c1cc(C(F)(F)F)cc(C(F)(F)F)c1 [netupitant]

>  <cell viability / %>
96.5

$$$$
